Origin of measurements: ChEMBL document CHEMBL3997794

target: Histone deacetylase 8 (Homo sapiens)
Sequence (Q9BY41 whole entry): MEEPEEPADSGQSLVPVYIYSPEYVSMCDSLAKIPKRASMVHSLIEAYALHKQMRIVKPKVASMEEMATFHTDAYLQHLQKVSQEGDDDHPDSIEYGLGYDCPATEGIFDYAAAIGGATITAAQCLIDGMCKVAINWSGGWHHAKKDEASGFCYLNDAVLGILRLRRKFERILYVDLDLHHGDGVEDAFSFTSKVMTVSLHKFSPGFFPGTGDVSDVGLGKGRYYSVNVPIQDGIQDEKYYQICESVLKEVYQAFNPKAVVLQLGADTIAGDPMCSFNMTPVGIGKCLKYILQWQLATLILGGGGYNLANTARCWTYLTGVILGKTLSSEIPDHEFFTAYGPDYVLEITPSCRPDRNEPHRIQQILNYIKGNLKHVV
Please provide measured IC50 for the entries that follow.

O=C(CCCCN1C(=O)[C@H](CC(=O)NO)N=C(c2ccccc2)c2ccccc21)NO = > 30 µM

Provide each entry's IC50 from the list below.
1. C[C@H](OCc1ccccc1)[C@@H]1N=C(c2ccccc2)c2ccccc2NC1=O
2. CC[C@H](C)[C@@H]1N=C(c2ccccc2)c2ccccc2N(CCCCC(=O)O)C1=O
3. O=C(CCCCN1C(=O)[C@H](Cc2cnc[nH]2)N=C(c2ccccc2)c2ccccc21)NO
4. Cc1c(C)c(S(=O)(=O)NC(=N)NCCC[C@@H]2N=C(c3ccccc3)c3ccccc3NC2=O)c(C)c2c1OC(C)(C)C2
5. CC(C)C[C@@H]1N=C(c2ccccc2)c2ccccc2NC1=O
6. NC(=O)C[C@@H]1N=C(c2ccccc2)c2ccccc2N(CCCCC(=O)NO)C1=O

Result:
1: > 30 µM; 2: > 30 µM; 3: > 30 µM; 4: > 30 µM; 5: > 30 µM; 6: > 30 µM

Provide each entry's IC50 from the list below.
1. O=C(O)CC[C@@H]1N=C(c2ccccc2)c2ccccc2NC1=O
2. C[C@@H]1N=C(c2ccccc2)c2ccccc2N(CCCCC(=O)NO)C1=O
3. O=C(CC[C@@H]1N=C(c2ccccc2)c2ccccc2NC1=O)NO
4. CC(C)(C)SC[C@H]1N=C(c2ccccc2)c2ccccc2N(CCCCC(=O)NO)C1=O
5. O=C(O)CCCCN1C(=O)[C@H](CCC(=O)NC(c2ccccc2)(c2ccccc2)c2ccccc2)N=C(c2ccccc2)c2ccccc21

Result:
> 30 µM
24.7 µM
> 30 µM
> 30 µM
> 30 µM

Provide each entry's IC50 from the list below.
1. CC[C@@H](C)[C@@H]1N=C(c2ccccc2)c2ccccc2N(CCCCC(=O)NO)C1=O
2. O=C(O)CCCCN1C(=O)[C@H](CC(=O)NC(c2ccccc2)(c2ccccc2)c2ccccc2)N=C(c2ccccc2)c2ccccc21
3. CSCC[C@@H]1N=C(c2ccccc2)c2ccccc2N(CCCCC(=O)O)C1=O
4. O=C(CCCCN1C(=O)CN=C(c2ccccc2)c2ccccc21)NO
5. O=C(C[C@H]1N=C(c2ccccc2)c2ccccc2NC1=O)NO
6. O=C(CCCCN1C(=O)[C@H](Cc2ccc(O)cc2)N=C(c2ccccc2)c2ccccc21)NO

Result:
1: > 30 µM; 2: > 30 µM; 3: > 30 µM; 4: 6.72 µM; 5: > 30 µM; 6: > 30 µM

Provide each entry's IC50 from the list below.
1. C[C@@H]1N=C(c2ccccc2)c2ccccc2NC1=O
2. O=C(CCCCN1C(=O)[C@H](CC(=O)NC(c2ccccc2)(c2ccccc2)c2ccccc2)N=C(c2ccccc2)c2ccccc21)NO
3. COC(=O)CCCCN1C(=O)[C@H](CCCCNC(=O)OC(C)(C)C)N=C(c2ccccc2)c2ccccc21
4. COC(=O)CCCCN1C(=O)[C@H](CCC(=O)NC(c2ccccc2)(c2ccccc2)c2ccccc2)N=C(c2ccccc2)c2ccccc21
5. O=C(C[C@@H]1N=C(c2ccccc2)c2ccccc2NC1=O)NC(c1ccccc1)(c1ccccc1)c1ccccc1
6. N[C@H](Cc1ccc(Cl)cc1Cl)C(=O)N1Cc2ccccc2C1
7. CC(C)(C)OC(=O)n1cc(C[C@@H]2N=C(c3ccccc3)c3ccccc3NC2=O)c2ccccc21

Result:
1: > 30 µM; 2: > 30 µM; 3: > 30 µM; 4: > 30 µM; 5: > 30 µM; 6: 1.09 µM; 7: > 30 µM

Provide each entry's IC50 from the list below.
1. COC(=O)CCCCN1C(=O)[C@H](Cc2ccc(OC(C)(C)C)cc2)N=C(c2ccccc2)c2ccccc21
2. CC(C)(C)Oc1ccc(C[C@@H]2N=C(c3ccccc3)c3ccccc3N(CCCCC(=O)NO)C2=O)cc1
3. O=C(O)CCCCN1C(=O)[C@H](CCC(=O)O)N=C(c2ccccc2)c2ccccc21
4. O=C1Nc2ccccc2C(c2ccccc2)=N[C@H]1Cc1ccccc1
5. O=C(O)CCCCN1C(=O)[C@H](Cc2ccccc2)N=C(c2ccccc2)c2ccccc21

Result:
["> 30 µM", "3.3 µM", "> 30 µM", "> 30 µM", "> 30 µM"]

Provide each entry's IC50 from the list below.
1. COC(=O)CCCCN1C(=O)[C@@H](CSC(C)(C)C)N=C(c2ccccc2)c2ccccc21
2. CC(C)(C)OC(=O)n1c(C[C@@H]2N=C(c3ccccc3)c3ccccc3N(CCCCC(=O)NO)C2=O)cc2ccccc21
3. CC(C)(C)OC(=O)CC[C@@H]1N=C(c2ccccc2)c2ccccc2N(CCCCC(=O)O)C1=O
4. C[C@@H](OCc1ccccc1)[C@@H]1N=C(c2ccccc2)c2ccccc2N(CCCCC(=O)NO)C1=O
5. CC(C)(C)OC(=O)CC[C@H]1N=C(c2ccccc2)c2ccccc2NC1=O
6. CC[C@H](C)[C@@H]1N=C(c2ccccc2)c2ccccc2N(CCCCC(=O)OC)C1=O
7. O=C(O)C[C@@H]1N=C(c2ccccc2)c2ccccc2N(CCCCC(=O)NO)C1=O

Result:
["> 30 µM", "8.39 µM", "> 30 µM", "29.5 µM", "> 30 µM", "> 30 µM", "> 30 µM"]
